Experiment: Urinary excretion of quantified metabolites in collected fractions after extract intake
Assay type: in vivo, human
Details: after consuming orange extract; fraction 0 to 4 h; mean ± SD
reported endpoint: Metabolite quantified in urine fraction F1 (μg/mg creatinine)
Field: numeric (μg/mg creatinine). Do not append units.

Please indicate Metabolite quantified in urine fraction F1 recorded for O=C1C[C@@H](c2ccc(O[C@@H]3O[C@H](C(=O)O)[C@@H](O)[C@H](O)[C@H]3O)cc2)Oc2cc(O)cc(O)c21 [M5, Naringenin 4'-O-glucuronide]
0.1

Name the recorded Metabolite quantified in urine fraction F1 of the compound listed here: COc1ccc(C2CC(=O)c3c(O)cc(O)cc3O2)cc1OS(=O)(=O)O (centres unmarked) [M14, Hesperetin 3'-O-sulfate]
0.1

Given the compound COc1ccc(C2CC(=O)c3c(O)cc(O)cc3O2)cc1O[C@@H]1O[C@H](C(=O)O)[C@@H](O)[C@H](O)[C@H]1O (some centres unmarked) [M8, Hesperetin 3'-O-glucuronide] , write its reported Metabolite quantified in urine fraction F1.
0.5

Return the recorded Metabolite quantified in urine fraction F1 value; entry: COc1ccc([C@@H]2CC(=O)c3c(O)cc(O[C@@H]4O[C@H](C(=O)O)[C@@H](O)[C@H](O)[C@H]4O)cc3O2)cc1O [M7, Hesperetin 7-O-glucuronide]
0.2

Look up Metabolite quantified in urine fraction F1 of O=C1C[C@@H](c2ccc(O)cc2)Oc2cc(O[C@@H]3O[C@H](C(=O)O)[C@@H](O)[C@H](O)[C@H]3O)cc(O)c21 [M3, Naringenin 7-O-glucuronide] and report it.
0.1

====

Assay: Urinary excretion of quantified metabolites in collected fractions after extract intake
Format: in vivo, human
Settings: after consuming orange extract; fraction 4 to 8 h; mean ± SD
Threshold-based label: Metabolite quantified in urine fraction F2 under 0.3 μg/mg creatinine gives class 1, Metabolite quantified in urine fraction F2 not under 0.3 μg/mg creatinine gives class 0.

Threshold test, Metabolite quantified in urine fraction F2 < 0.3 μg/mg creatinine: COc1ccc([C@@H]2CC(=O)c3c(O)cc(O[C@@H]4O[C@H](C(=O)O)[C@@H](O)[C@H](O)[C@H]4O)cc3O2)cc1O [M7, Hesperetin 7-O-glucuronide]
class 0

Is Metabolite quantified in urine fraction F2 of O=C1C[C@@H](c2ccc(O)cc2)Oc2cc(O[C@@H]3O[C@H](C(=O)O)[C@@H](O)[C@H](O)[C@H]3O)cc(O)c21 [M3, Naringenin 7-O-glucuronide] strictly below 0.3 μg/mg creatinine?
class 1

Lab note: Metabolite quantified in urine fraction F2 threshold 0.3 μg/mg creatinine. Does this compound come in strictly under it? COc1ccc(C2CC(=O)c3c(O)cc(O)cc3O2)cc1OS(=O)(=O)O (centres unmarked) [M14, Hesperetin 3'-O-sulfate]
class 0

Field: below-cutoff. Rule: recorded Metabolite quantified in urine fraction F2 strictly less than 0.3 μg/mg creatinine. Subject: COc1ccc(C2CC(=O)c3c(O)cc(O)cc3O2)cc1O[C@@H]1O[C@H](C(=O)O)[C@@H](O)[C@H](O)[C@H]1O (some centres unmarked) [M8, Hesperetin 3'-O-glucuronide]
class 0

====

Test: Urinary excretion of quantified metabolites in collected fractions after extract intake
Format: in vivo, human
Settings: after consuming lemon extract; sum of fractions F1-F4; mean ± SD
reported endpoint: Metabolite quantified in urine, Total F (24 h)

For O=C1C[C@@H](c2ccc(O)cc2)Oc2cc(O[C@@H]3O[C@H](C(=O)O)[C@@H](O)[C@H](O)[C@H]3O)cc(O)c21 [M3, Naringenin 7-O-glucuronide] , write its Metabolite quantified in urine, Total F (24 h).
5.7 ± 6.9 μg/mg creatinine

Return the recorded Metabolite quantified in urine, Total F (24 h) value; entry: COc1ccc(C2CC(=O)c3c(O)cc(O)cc3O2)cc1O[C@@H]1O[C@H](C(=O)O)[C@@H](O)[C@H](O)[C@H]1O (some centres unmarked) [M8, Hesperetin 3'-O-glucuronide]
24.2 ± 23.7 μg/mg creatinine

Identify measured Metabolite quantified in urine, Total F (24 h) associated with COc1ccc(C2CC(=O)c3c(O)cc(O)cc3O2)cc1OS(=O)(=O)O (centres unmarked) [M14, Hesperetin 3'-O-sulfate]
9.0 ± 9.1 μg/mg creatinine

Return the recorded Metabolite quantified in urine, Total F (24 h) value; entry: COc1ccc([C@@H]2CC(=O)c3c(O)cc(O[C@@H]4O[C@H](C(=O)O)[C@@H](O)[C@H](O)[C@H]4O)cc3O2)cc1O [M7, Hesperetin 7-O-glucuronide]
8.5 ± 9.2 μg/mg creatinine

Please report Metabolite quantified in urine, Total F (24 h) for the following molecule: O=C1C[C@@H](c2ccc(O[C@@H]3O[C@H](C(=O)O)[C@@H](O)[C@H](O)[C@H]3O)cc2)Oc2cc(O)cc(O)c21 [M5, Naringenin 4'-O-glucuronide]
4.2 ± 5.0 μg/mg creatinine
